Target: Bcl-xL/Bim (Homo sapiens, UniProt Q07817)
Sequence (Q07817 whole entry): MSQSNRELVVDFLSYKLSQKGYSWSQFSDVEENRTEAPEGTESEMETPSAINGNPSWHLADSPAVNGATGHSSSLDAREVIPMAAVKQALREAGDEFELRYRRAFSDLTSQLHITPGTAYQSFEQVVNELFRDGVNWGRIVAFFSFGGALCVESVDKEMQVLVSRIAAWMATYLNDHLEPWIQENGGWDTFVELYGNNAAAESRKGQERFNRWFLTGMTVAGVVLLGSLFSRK
Assay: ELISA, disruption of Bcl-xL binding to Bim
Details: ELISA; average ± SEM, n ≥ 3 (n = 2 where given); 10 nM GST-Bcl-xL, 40 nM biotinylated Bim BH3 peptide; read-out: Bcl-xL/Bim IC50
pIC50: −log10 of the molar value.
measured_attribute: pIC50

Answered cases to consult:
compound="O=C(O)CS(=O)(=O)c1ccc(C(=O)c2[nH]c(Cl)c(Cl)c2-n2c(C(=O)c3ccc(S(=O)(=O)CC(=O)O)cc3O)cc(Cl)c2Cl)c(O)c1 [Compound 10]" recorded_measurement="< 4.00"
compound="CCOC(=O)CS(=O)(=O)c1ccc(C(=O)c2[nH]c(Cl)c(Cl)c2-n2c(C(=O)c3ccc(S(=O)(=O)CC(=O)OCC)cc3O)cc(Cl)c2Cl)c(O)c1 [Compound 6]" recorded_measurement="< 4.00"

For reference, reported pIC50 for COc1ccc(CSc2ccc(C(=O)c3[nH]c(Cl)c(Cl)c3-n3c(C(=O)c4ccc(SCc5ccc(OC)cc5)cc4O)cc(Cl)c3Cl)c(O)c2)cc1 [Compound 5] stands at 6.22

====

Biological target: Mcl-1/Bim (Homo sapiens, UniProt Q07820)
Sequence (Q07820 whole entry): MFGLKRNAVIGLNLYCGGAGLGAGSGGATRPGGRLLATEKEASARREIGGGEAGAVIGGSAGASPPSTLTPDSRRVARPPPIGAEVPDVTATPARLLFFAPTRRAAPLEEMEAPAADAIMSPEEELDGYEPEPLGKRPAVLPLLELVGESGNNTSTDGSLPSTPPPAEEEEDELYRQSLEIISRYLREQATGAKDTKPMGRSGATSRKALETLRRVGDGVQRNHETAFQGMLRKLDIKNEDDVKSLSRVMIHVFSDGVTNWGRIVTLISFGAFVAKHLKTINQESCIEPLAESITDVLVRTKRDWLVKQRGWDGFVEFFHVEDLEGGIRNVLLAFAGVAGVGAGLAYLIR
Assay: ELISA, disruption of Mcl-1 binding to Bim
Conditions: ELISA; average ± SEM, n ≥ 3; 10 nM GST-Mcl-1, 40 nM biotinylated Bim BH3 peptide; read-out: Mcl-1/Bim IC50
pIC50: −log10 of the molar value.
measured_attribute: pIC50

compound="O=C(c1ccccc1O)c1[nH]c(Cl)c(Cl)c1-n1c(C(=O)c2ccccc2O)cc(Cl)c1Cl [Compound 1, marinopyrrole A, reference compound]" target_or_system="Mcl-1/Bim (Homo sapiens, UniProt Q07820)" recorded_measurement=4.60
compound="O=C(c1ccc(S(=O)(=O)Cc2ccccc2)cc1O)c1[nH]c(Cl)c(Cl)c1-n1c(C(=O)c2ccc(S(=O)(=O)Cc3ccccc3)cc2O)cc(Cl)c1Cl [Compound 7]" target_or_system="Mcl-1/Bim (Homo sapiens, UniProt Q07820)" recorded_measurement=5.14
compound="COc1ccc(CS(=O)(=O)c2ccc(C(=O)c3[nH]c(Cl)c(Cl)c3-n3c(C(=O)c4ccc(S(=O)(=O)Cc5ccc(OC)cc5)cc4O)cc(Cl)c3Cl)c(O)c2)cc1 [Compound 8]" target_or_system="Mcl-1/Bim (Homo sapiens, UniProt Q07820)" recorded_measurement=4.76

[A] CCOC(=O)c1[nH]c(Cl)c(Cl)c1-n1c(C(=O)c2ccccc2O)cc(Cl)c1Cl [Compound 12]
[B] CCOC(=O)CSc1ccc(C(=O)c2[nH]c(Cl)c(Cl)c2-n2c(C(=O)c3ccc(SCC(=O)OCC)cc3O)cc(Cl)c2Cl)c(O)c1 [Compound 3]
[C] O=C(O)CS(=O)(=O)c1ccc(C(=O)c2[nH]c(Cl)c(Cl)c2-n2c(C(=O)c3ccc(S(=O)(=O)CC(=O)O)cc3O)cc(Cl)c2Cl)c(O)c1 [Compound 10]
Exercise: Sort ascending by pIC50. Answer with the labels in sequence, matching the requested order.
Key: C, A, B
(C: 4.20, A: 4.94, B: 5.74)

====

Tested on: MDA-MB-468 cells
Assay: MTT assay
Conditions: Homo sapiens, MDA-MB-468, 48 h, read-out: estimated IC50, inhibition of MDA-MB-468 cell growth
pIC50: −log10 of the molar value.
measured_attribute: pIC50

Use these answered entries as a reference point.
compound="O=C(O)CSc1ccc(C(=O)c2[nH]c(Cl)c(Cl)c2-n2c(C(=O)c3ccc(SCC(=O)O)cc3O)cc(Cl)c2Cl)c(O)c1 [Compound 9]" measured_attribute=pIC50 recorded_measurement=4.54
compound="COc1ccc(CS(=O)(=O)c2ccc(C(=O)c3[nH]c(Cl)c(Cl)c3-n3c(C(=O)c4ccc(S(=O)(=O)Cc5ccc(OC)cc5)cc4O)cc(Cl)c3Cl)c(O)c2)cc1 [Compound 8]" measured_attribute=pIC50 recorded_measurement=4.30
compound="CCOC(=O)c1cc(Cl)c(Cl)n1-c1c(C(=O)c2ccccc2O)[nH]c(Cl)c1Cl [Compound 11]" measured_attribute=pIC50 recorded_measurement=5.70
compound="O=C(c1ccc(S(=O)(=O)Cc2ccccc2)cc1O)c1[nH]c(Cl)c(Cl)c1-n1c(C(=O)c2ccc(S(=O)(=O)Cc3ccccc3)cc2O)cc(Cl)c1Cl [Compound 7]" measured_attribute=pIC50 recorded_measurement=4.70

[P] CCOC(=O)c1[nH]c(Cl)c(Cl)c1-n1c(C(=O)c2ccccc2O)cc(Cl)c1Cl [Compound 12]
[Q] O=C(c1ccc(SCc2ccccc2)cc1O)c1[nH]c(Cl)c(Cl)c1-n1c(C(=O)c2ccc(SCc3ccccc3)cc2O)cc(Cl)c1Cl [Compound 4]
[R] CCOC(=O)CS(=O)(=O)c1ccc(C(=O)c2[nH]c(Cl)c(Cl)c2-n2c(C(=O)c3ccc(S(=O)(=O)CC(=O)OCC)cc3O)cc(Cl)c2Cl)c(O)c1 [Compound 6]
Exercise: Arrange the 3 compounds by rising pIC50, starting with the smallest. # list labels per requested ordering
Key: R, Q, P
(R: 4.30, Q: 4.55, P: 4.80)

====

Molecular target: Mcl-1/Bim (Homo sapiens)
Assay: ELISA, disruption of Mcl-1 binding to Bim
Details: ELISA; average ± SEM, n ≥ 3; 10 nM GST-Mcl-1, 40 nM biotinylated Bim BH3 peptide; read-out: Mcl-1/Bim IC50
pIC50: −log10 of the molar value.
measured_attribute: pIC50

molecular_string=CCOC(=O)CS(=O)(=O)c1ccc(C(=O)c2[nH]c(Cl)c(Cl)c2-n2c(C(=O)c3ccc(S(=O)(=O)CC(=O)OCC)cc3O)cc(Cl)c2Cl)c(O)c1 measured_attribute=pIC50 recorded_measurement=4.43

[P] O=C(O)CSc1ccc(C(=O)c2[nH]c(Cl)c(Cl)c2-n2c(C(=O)c3ccc(SCC(=O)O)cc3O)cc(Cl)c2Cl)c(O)c1
[Q] O=C(c1ccc(SCc2ccccc2)cc1O)c1[nH]c(Cl)c(Cl)c1-n1c(C(=O)c2ccc(SCc3ccccc3)cc2O)cc(Cl)c1Cl
Exercise: Given the listed records, identify the one among P and Q with higher pIC50. Lab note: record the label of whichever item you select.
Key: Q
(Q: 6.15, P: 5.21)

====

Test system: MDA-MB-468 cells
Test: MTT assay
Details: Homo sapiens, MDA-MB-468, 48 h, read-out: estimated IC50, inhibition of MDA-MB-468 cell growth
measured_attribute: IC50 (µM)

[I] O=C(O)CS(=O)(=O)c1ccc(C(=O)c2[nH]c(Cl)c(Cl)c2-n2c(C(=O)c3ccc(S(=O)(=O)CC(=O)O)cc3O)cc(Cl)c2Cl)c(O)c1
[II] COc1ccc(CSc2ccc(C(=O)c3[nH]c(Cl)c(Cl)c3-n3c(C(=O)c4ccc(SCc5ccc(OC)cc5)cc4O)cc(Cl)c3Cl)c(O)c2)cc1
[III] CCOC(=O)CSc1ccc(C(=O)c2[nH]c(Cl)c(Cl)c2-n2c(C(=O)c3ccc(SCC(=O)OCC)cc3O)cc(Cl)c2Cl)c(O)c1
Exercise: Hello, I need these entries ordered by IC50, highest reading first. Thanks! Output spec: a listing of the labels in the requested order.
Key: II, I, III
(II: 50 µM, I: 20 µM, III: 3 µM)

====

Target: Bcl-xL/Bim (Homo sapiens, UniProt Q07817)
Test: ELISA, disruption of Bcl-xL binding to Bim
Conditions: ELISA; read-out: IC50 Bcl-xL/Bim disruption (abstract)
pIC50: −log10 of the molar value.
measured_attribute: pIC50

molecular_string=O=C(c1ccc(SCc2ccccc2)cc1O)c1[nH]c(Cl)c(Cl)c1-n1c(C(=O)c2ccc(SCc3ccccc3)cc2O)cc(Cl)c1Cl target_or_system="Bcl-xL/Bim (Homo sapiens, UniProt Q07817)" recorded_measurement=6.15
molecular_string=COc1ccc(CSc2ccc(C(=O)c3[nH]c(Cl)c(Cl)c3-n3c(C(=O)c4ccc(SCc5ccc(OC)cc5)cc4O)cc(Cl)c3Cl)c(O)c2)cc1 target_or_system="Bcl-xL/Bim (Homo sapiens, UniProt Q07817)" recorded_measurement=6.15

====

Target: Mcl-1/Bim (Homo sapiens)
Test: ELISA, disruption of Mcl-1 binding to Bim
Settings: ELISA; read-out: IC50 Mcl-1/Bim disruption (abstract)
pIC50: −log10 of the molar value.
measured_attribute: pIC50

compound="COc1ccc(CSc2ccc(C(=O)c3[nH]c(Cl)c(Cl)c3-n3c(C(=O)c4ccc(SCc5ccc(OC)cc5)cc4O)cc(Cl)c3Cl)c(O)c2)cc1 [Compound 5]" measured_attribute=pIC50 recorded_measurement=6.22
compound="O=C(c1ccc(SCc2ccccc2)cc1O)c1[nH]c(Cl)c(Cl)c1-n1c(C(=O)c2ccc(SCc3ccccc3)cc2O)cc(Cl)c1Cl [Compound 4]" measured_attribute=pIC50 recorded_measurement=6.22
